# assay-details: Half life in rat at 3 mg/kg, iv
# Assay type: ADME, organism-based
# Set-up: dose 3 mg/kg, route intravenous
# setup-conditions: in vivo
metric-name: half-life (h)
Just the number please, in h, no unit attached.

Ask: Please report the recorded half-life for CN(C)CC1=Cc2ccc(-n3cnc4cc(-c5ccc(Cl)cc5)sc4c3=O)cc2CC1 .
Result: 3

Ask: Could you share which half-life value was measured for O=c1c2sc(-c3ccc(Cl)cc3)cc2ncn1-c1ccc2sc(CN3CC[C@@H](O)C3)cc2c1 ?
Result: 2.1

Ask: Need half-life of CN1CCN(Cc2cc3cc(-n4cnc5cc(-c6ccc(Cl)cc6)sc5c4=O)ccc3s2)CC1 , thanks.
Result: 9.1

Ask: Looking for the measured half-life of O=c1c2sc(-c3ccc(Cl)cc3)cc2ncn1-c1ccc2oc(CN3CCCC3)cc2c1 , can you help?
Result: 1.6

Ask: Report half-life for O=c1c2sc(-c3ccc(Cl)cc3)cc2ncn1-c1ccc2c(c1)CCC(CN1CCCC1)=C2 please.
Result: 11

Ask: Entry under review: O=c1c2sc(-c3ccc(Cl)cc3)cc2ncn1-c1ccc2sc(CN3CCC(c4ccccc4)CC3)cc2c1 . Reported half-life?
Result: 5.9

###

Provide the reported bioavailability of each item.
# assay-details: Oral bioavailability in rat at 3 mg/kg, iv and 10 mg/kg, po
# Type: ADME, organism-based
# setup-conditions: in vivo
Give just the numeric value; % need not be written.

Ask: Look up bioavailability: CN1CCN(Cc2cc3cc(-n4cnc5cc(-c6ccc(Cl)cc6)sc5c4=O)ccc3s2)CC1
Result: 66

Ask: What value of bioavailability has been recorded for this entry: O=c1c2sc(-c3ccc(Cl)cc3)cc2ncn1-c1ccc2c(c1)CCC(CN1CCCC1)=C2
Result: 57

Ask: If you can, please state the reported bioavailability value of O=c1c2sc(-c3ccc(Cl)cc3)cc2ncn1-c1ccc2oc(CN3CCCC3)cc2c1 .
Result: 21

Ask: Which bioavailability reading was recorded for the compound O=c1c2sc(-c3ccc(Cl)cc3)cc2ncn1-c1ccc2sc(CN3CC[C@@H](O)C3)cc2c1 ?
Result: 36.1

Ask: # bioavailability lookup, item CN(C)CC1=Cc2ccc(-n3cnc4cc(-c5ccc(Cl)cc5)sc4c3=O)cc2CC1
Result: 67

Ask: # bioavailability lookup, item O=c1c2sc(-c3ccc(Cl)cc3)cc2ncn1-c1ccc2sc(CN3CCC(c4ccccc4)CC3)cc2c1
Result: 27.9

###

# assay-details: Total clearance in rat at 3 mg/kg, iv and 10 mg/kg, po
# Format: ADME, organism-based
# setup-conditions: in vivo
Kindly state clearance for each of the entries shown.

Ask: Can you look up the measured clearance of CN1CCN(Cc2cc3cc(-n4cnc5cc(-c6ccc(Cl)cc6)sc5c4=O)ccc3s2)CC1 for me?
Result: 39 mL/min/kg

Ask: I have this molecule here, O=c1c2sc(-c3ccc(Cl)cc3)cc2ncn1-c1ccc2sc(CN3CCC(c4ccccc4)CC3)cc2c1 , and I need its recorded clearance.
Result: 2.9 mL/min/kg

Ask: Field request: clearance | item: O=c1c2sc(-c3ccc(Cl)cc3)cc2ncn1-c1ccc2sc(CN3CC[C@@H](O)C3)cc2c1
Result: 30.8 mL/min/kg

Ask: # lookup: clearance of CN(C)CC1=Cc2ccc(-n3cnc4cc(-c5ccc(Cl)cc5)sc4c3=O)cc2CC1
Result: 80 mL/min/kg

Ask: Item O=c1c2sc(-c3ccc(Cl)cc3)cc2ncn1-c1ccc2oc(CN3CCCC3)cc2c1 has what recorded clearance?
Result: 115 mL/min/kg

Ask: Consider the molecule shown here: O=c1c2sc(-c3ccc(Cl)cc3)cc2ncn1-c1ccc2c(c1)CCC(CN1CCCC1)=C2 What is its recorded clearance?
Result: 21.2 mL/min/kg
